experiment: Selectivity index, ratio of IC50 for rat L6 cells to IC50 for Trypanosoma brucei brucei 221; format: toxicity; details: read-out: Ratio IC50
measure: selectivity ratio

Some solved cases for reference:
# input molecule: "CCN(CC)CCOc1ccc(-c2nc3cc(C4=NCCN4)ccc3[nH]2)cc1OC.Cl.Cl" ; wanted: its selectivity ratio > 350

# input molecule: "CCN(CC)CCOc1ccc(-c2nc3cc(C4=NCCN4)ccc3[nH]2)cc1F.Cl.Cl" ; wanted: its selectivity ratio > 68

Turning now to a further record.
# input molecule: "CCN(CC)CCOc1ccc(-c2nc3cc(C4=NCCN4)ccc3[nH]2)cc1.Cl.Cl" ; wanted: its selectivity ratio > 530
